Quick list: Selectivity Index per entry.
Assay: Selectivity index, ratio of IC50 for ovine COX1 to IC50 for recombinant human COX2

{"CHEMICAL STRUCTURE": "NS(=O)(=O)c1ccc(-n2nc(C(=O)NNC(=O)c3cccc(C(F)(F)F)c3)cc2-c2ccccc2)cc1", "RESULT": 10}
{"CHEMICAL STRUCTURE": "Cc1cc(-c2ccccc2)n(-c2nc3c(cnn3-c3ccccc3)c(=O)n2-c2ccccc2)n1", "RESULT": 5.44}
{"CHEMICAL STRUCTURE": "CS(=O)(=O)c1ccc(-n2cc(/C=C3\\NC(=S)N(c4ccccc4)C3=O)c(-c3ccccc3)n2)cc1", "RESULT": 9.15}
{"CHEMICAL STRUCTURE": "COc1ccc(N2C(=O)/C(=C/c3cn(-c4ccc(S(C)(=O)=O)cc4)nc3-c3cccc(Cl)c3)NC2=S)cc1", "RESULT": 9.32}

Here's the next entry for you.
For the compound CCc1c(-c2ccccc2)n(C(=O)c2ccc(F)cc2)c2ccc(S(C)(=O)=O)cc12 , report Selectivity Index.
65.7
